# credit: PubChem BioAssay (NCI)

# System: SK-MEL-28 melanoma
# measurementDescription: NCI-60 one-dose screen, 48 h (100 = growth as untreated, 0 = no growth, -100 = all killed)
# conditionNotes: 10 µM unless noted
Compounds without any hit were thinned out: in the full panel of roughly 83,000, 20% have a hit.
Recorded growth by entry
measuredAttribute: growth (%)

1. Oc1ccc(N=Cc2ccccc2O)cc1	127
2. CC(=O)O[C@H]1[C@@H]2OC(=O)C(CSc3ccccc3)[C@@H]2C[C@H]2O[C@]2(C)CC/C=C(\C)CCC[C@@H]1C (some centres not stated)	37.7
3. O=C1/C(=C/c2cn(-c3ccccc3)nc2-c2ccccc2)SC(=S)N1CCc1ccccc1	118
4. CSc1nc(NCc2ccccc2)c(C#N)c(-c2cccc([N+](=O)[O-])c2)n1	102
5. CCCCCCCCCCCCC[N+](C)(C)Cc1ccccc1	-57
6. N#Cc1cnn(-c2nc3c(Cl)cccc3s2)c1N	102
7. O=C1C=C(O)C(=O)C(CC2=C(O)C(=O)C=C(O)C2=O)=C1O	110
